- Assay system: E. coli RNase P holoenzyme (M1 P RNA + rnpA protein)
- Sequence: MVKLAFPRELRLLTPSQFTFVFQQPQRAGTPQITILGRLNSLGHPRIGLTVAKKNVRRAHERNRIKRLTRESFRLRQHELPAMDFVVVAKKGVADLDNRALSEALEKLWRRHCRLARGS
- Test details: relative kcat/Km (krel) vs genomic leader AAAGAU (relative (reference leader = 1)); higher = faster RNase P cleavage
- Reported conditions: fraction of substrate reacted: ~26-29% (28.66% repeat 1, 26.4% repeat 2)
Over roughly 4,100 sequences, “relative kcat/Km (krel) vs genomic leader AAAGAU” has its median near 1.7; the highest 2% begin near 6.5. This is one part of a sample in which the highest values are shown more often than they occur.
Field: relative kcat/Km. Provide a value for each of the sequences that follow.
One number for each entry.

Examples with answers:
item_sequence=ATATAC recorded_result=6.02
item_sequence=AGAGGG recorded_result=0.989
item_sequence=CGTTTA recorded_result=4.14
item_sequence=CCTTAT recorded_result=6.48

For every listed record, write down its relative kcat/Km.
1. GGTTAC
2. GTCATT

Found:
2.13
8.08

State recorded relative kcat/Km for all listed sequences.
1. TTTTAA
2. TCGGTG
3. TACATG

Found:
1: 6.68; 2: 0.367; 3: 3.16

For each of the sequences below, note its relative kcat/Km.
1. CACATC
2. TCTTAT
3. ATGACA
4. AACGAC
5. AATCAC
6. CCCAAT

Found:
5.53
8.21
2.06
5.98
4.12
5.27

Provide reported relative kcat/Km for each item, in the same order as listed.
1. TGCATC
2. TACGAC
3. GAGTTT
4. CAGGGA
5. CAAGAT
6. TCACAC

Found:
1. 2.05
2. 7.61
3. 2.05
4. 1.06
5. 1.49
6. 5.86

I would be grateful if you could provide relative kcat/Km for each of the following entries.
1. ATTTAA
2. CTTTAG
3. AAGTAA

Found:
5.24
3.51
4.47

Hey, can you go through the list below and give me relative kcat/Km for every item?
1. ACCCGC
2. CGTTAA
3. AAGGGT
4. TACATT

Found:
4.87
7.04
0.872
7.56

For every item in the list below, what is its measured relative kcat/Km?
1. GTCAAC
2. TCCATC
3. CTTATT

Found:
[7.94, 6.33, 3.73]

// for each sequence below, give its relative kcat/Km
1. CCGTAC
2. TATCAC
3. TACGTA
4. AGTCTT
5. CGCATT
6. CGTTGT
7. GATTGG
8. GGCATT

Found:
[5.69, 7.11, 3.67, 5, 4.66, 1.21, 0.409, 3.37]

Reference source for all entries: the supplement of paper PMC9433436
